Test: Encapsulation efficiency of lipid nanoparticles, Quant-it Ribogreen RNA quantification assay
Type: physicochemical
Conditions: LNP with mRNA
Reported Property: Encapsulation Efficiency (%)

• CCCCCCCCCCCCOCC(CN(CCO)C1CCC1)OC(=O)CCCCC (stereo not shown) = 92.8
• CCCCCCCCC(CCCCCCCC)CC(=O)OCC(CCCCN(CCN(C)CCO)C1CCC1)COC(=O)CC(CCCCCCCC)CCCCCCCC = 97.0
• CCCCCCCCCCCCOCC(O)CN(CCCCCC(=O)OCC(CCCCCC)CCCCCCCC)CCN1CCCCC1 (stereo not shown) = 88.2
• CCCCCCCCC(CCCCCC)CC(=O)OCC(CCCCN(CCN(CCO)CCCCC)C1CCC1)COC(=O)CC(CCCCCC)CCCCCCCC (stereo not shown) = 92.71
• CCCCCCCCCCCCOCC(CN(CCCCCC(=O)OCC(CCCCCC)CCCCCCCC)CCN1CCCCC1)OC(C)=O (stereo not shown) = 90.8
• CCCCCCCCCCCCOCC(CN(CCCCCCCCCCCC)CCN(CCO)C1CCC1)OCCCCCCCCCCCC (stereo not shown) = 92.8
• CCCCCCCCCCCCOCC(CN(C)CCN(CCO)C1CCC1)OC(=O)CCCCCCCCCCC (stereo not shown) = 94.4
